Value source: patent US8420851B2

- assay_target: TR-α (Homo sapiens)
- assay_info: In vitro TR-α activity (in-house protocol)
- Format: cell-based
- test_conditions: Conc. 1 nM
The label is Met for TR-α Fold Induction w.r.t T3(100 nm) below 10 and Not met for TR-α Fold Induction w.r.t T3(100 nm) equal to or exceeding 10.

| structure | assigned_category |
| --- | --- |
| O=C(O)CN(C(=O)Oc1ccc(O)cc1)c1cc(Cl)c(Oc2ccc(O)c(S(=O)(=O)N3CCCCCC3)c2)c(Cl)c1 | Not met |
| Cc1cc(N(CC(=O)O)CC(=O)O)cc(C)c1Oc1ccc(O)c(C(C)C)c1 | Not met |
| Cc1cc(N(CC(=O)O)C(=O)Oc2ccc(O)cc2)cc(C)c1Oc1ccc(O)c(C(C)C)c1 | Not met |
| O=C(O)CN(CC(=O)O)c1cc(Cl)c(Oc2ccc(O)c(C(=O)c3ccc(Cl)cc3)c2)c(Cl)c1 | Met |
| Cc1cccc(C(=O)c2cc(Oc3c(Cl)cc(N(CC(=O)O)C(=O)Oc4ccc(O)cc4)cc3Cl)ccc2O)c1 | Not met |
| CC(C)(C)c1cc(Oc2c(Cl)cc(N(CC(=O)O)C(=O)Oc3ccc(O)cc3)cc2Cl)ccc1O | Not met |
| CC(C)c1cc(Oc2c(Cl)cc(N(CC(=O)O)CC(=O)O)cc2Cl)ccc1O | Met |
